B1: KCNG1 (parent)
chain: LFVTVTAVNLSVSTLPSLREEEEQ

Variants of: B1
protocol.details: protein stability index of a GFP-peptide fusion (GPS, HEK-293T) (PSI 1-6); higher = more stable;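 note: lentivirally expressed fusions sorted by FACS into six bins by GFP to DsRed ratio, PSI derived from sequencing read proportions per bin multiplied by bin number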
condition: c terminus: a fixed tail appended
Grouping rule (protein stability index): bottom range (below 2), center range (2 to below 3), top range (3 or more)

For orientation, consider the following solved cases.
{"columns": ["record.sequence", "assigned.class"],
 "data": [
  ["LFPTVTAVNLSVSTLPSLREEEEQ [V3P]", "top range"],
  ["LFVTVTAVNLSVSTLCSLREEEEQ [P16C]", "bottom range"],
  ["LFVTVTAVNLSVSTLNSLREEEEQ [P16N]", "top range"],
  ["LFVTVTAVNLSVSTLPSLREEETQ [E23T]", "top range"],
  ["LFVTVTAVNLSVSTLPSLREEEEM [Q24M]", "center range"],
  ["LFHTVTAVNLSVSTLPSLREEEEQ [V3H]", "top range"],
  ["LFVTVTAVNQSVSTLPSLREEEEQ [L10Q]", "top range"],
  ["LTVTVTAVNLSVSTLPSLREEEEQ [F2T]", "bottom range"]
]}

Please classify: LFVTVRAVNLSVSTLPSLREEEEQ [T6R]
bottom range

Kindly state the category for this variant: LFVTMTAVNLSVSTLPSLREEEEQ [V5M]
center range

Which class is correct for the following variant? LFVTVTAVNLSVSTLPSHREEEEQ [L18H]
center range

For IFVTVTAVNLSVSTLPSLREEEEQ [L1I] , which protein stability index bin applies?
center range

Band assignment needed for LFVTVTAVNLSVSTLPSLREEELQ [E23L] please.
top range

Tag the class for LFVTVTAVNSSVSTLPSLREEEEQ [L10S]
center range

Class for LFVTVTAVNLSVSTLPSLREYEEQ [E21Y] ?
top range

Which bin should I file LFVTVAAVNLSVSTLPSLREEEEQ [T6A] under?
bottom range

Category lookup for the variant LFVTVTAVNLEVSTLPSLREEEEQ [S11E]
bottom range

Please indicate the class for LFVTVTAVNLSWSTLPSLREEEEQ [V12W] based on its protein stability index.
center range

Attribution: the supplement of paper PMC10567573
